The measurements presented in this section are drawn from ChEMBL document CHEMBL4011658.

- assay overview: Selectivity index, ratio of cytotoxicity against African green monkey VERO cells to IC50 for Cryptococcus neoformans ATCC 90113
- Assay type: toxicity, cell-based
- test context: read-out: Selectivity Index
measure: selectivity ratio

INSERT INTO results (compound_structure_string, measure, result) VALUES
  ('CC(C)(C)OC(=O)N[C@@H](Cc1c[nH]c(-c2ccccc2)n1)C(=O)N[C@@H](Cc1c[nH]c2ccccc12)C(=O)N[C@@H](Cc1c[nH]c(-c2ccccc2)n1)C(=O)NCc1ccccc1', 'selectivity ratio', '> 7.1'),
  ('COC(=O)[C@H](Cc1c[nH]c(-c2ccccc2)n1)NC(=O)[C@H](Cc1c[nH]c2ccccc12)NC(=O)[C@H](Cc1c[nH]c(-c2ccccc2)n1)NC(=O)OC(C)(C)C', 'selectivity ratio', '> 1.1'),
  ('COC(=O)[C@H](Cc1c[nH]c(-c2ccc(-c3ccccc3)cc2)n1)NC(=O)[C@H](Cc1c[nH]c2ccccc12)NC(=O)[C@@H](N)Cc1c[nH]c(-c2ccc(-c3ccccc3)cc2)n1', 'selectivity ratio', '> 28.6'),
  ('COC(=O)[C@H](Cc1c[nH]c(-c2ccc(C(C)(C)C)cc2)n1)NC(=O)[C@H](Cc1c[nH]c2ccccc12)NC(=O)[C@@H](N)Cc1c[nH]c(-c2ccc(C(C)(C)C)cc2)n1', 'selectivity ratio', '> 12'),
  ('N[C@@H](Cc1c[nH]c(-c2ccc(-c3ccccc3)cc2)n1)C(=O)N[C@@H](Cc1c[nH]c2ccccc12)C(=O)N[C@@H](Cc1c[nH]c(-c2ccc(-c3ccccc3)cc2)n1)C(=O)NCc1ccccc1', 'selectivity ratio', '> 7.1');
